Taken from patent US20140179593A1.

measured_target: T1, hE1 for Nedd8 (APPBP1-UBA3, NAE1-UBA3) (Homo sapiens, UniProt Q13564 18-534; Q8TBC4 22-463, limits assumed)
T1 construct: Heterodimeric E1 expressed in E. coli as described in earlier publications
T1 sequence 1: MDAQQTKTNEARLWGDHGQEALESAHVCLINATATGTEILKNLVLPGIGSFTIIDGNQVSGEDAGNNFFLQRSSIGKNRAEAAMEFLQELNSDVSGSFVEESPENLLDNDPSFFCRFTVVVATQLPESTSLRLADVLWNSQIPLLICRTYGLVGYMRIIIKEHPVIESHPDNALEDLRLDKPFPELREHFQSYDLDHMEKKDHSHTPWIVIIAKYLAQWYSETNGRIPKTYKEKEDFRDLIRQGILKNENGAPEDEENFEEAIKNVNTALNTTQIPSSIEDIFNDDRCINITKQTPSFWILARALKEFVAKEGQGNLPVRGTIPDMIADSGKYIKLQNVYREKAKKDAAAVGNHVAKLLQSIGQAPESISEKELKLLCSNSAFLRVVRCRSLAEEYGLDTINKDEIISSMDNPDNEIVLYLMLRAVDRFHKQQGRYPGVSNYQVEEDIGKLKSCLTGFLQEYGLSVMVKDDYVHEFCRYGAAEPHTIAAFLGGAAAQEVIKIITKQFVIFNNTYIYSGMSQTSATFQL
T1 sequence 2: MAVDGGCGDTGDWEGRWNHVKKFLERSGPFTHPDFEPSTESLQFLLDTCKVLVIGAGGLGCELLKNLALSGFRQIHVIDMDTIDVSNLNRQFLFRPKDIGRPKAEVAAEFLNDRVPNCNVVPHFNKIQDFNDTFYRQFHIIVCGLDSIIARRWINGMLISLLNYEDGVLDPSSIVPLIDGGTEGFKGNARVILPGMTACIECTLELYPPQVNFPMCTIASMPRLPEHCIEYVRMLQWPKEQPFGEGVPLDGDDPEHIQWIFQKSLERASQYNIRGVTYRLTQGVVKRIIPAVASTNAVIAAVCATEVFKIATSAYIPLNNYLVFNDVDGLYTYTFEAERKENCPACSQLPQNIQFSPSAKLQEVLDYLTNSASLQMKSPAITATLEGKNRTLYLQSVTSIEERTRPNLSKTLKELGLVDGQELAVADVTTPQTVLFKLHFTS
assay_summary: ITC, peptide titrated into hE1

| binder | Kd (nM) |
| --- | --- |
| Ac-MIKLFSLKQQKK-NH2 (Synthetic control peptide for the stapled peptide; also called hUbc12^Ac1-12) [Acetyl-hUbc12^1-12 peptide] | 630 |
